Entries annotated with measured Concentration slopes of accumulation, PΔ3_1 min
- Tested on: P. aeruginosa PΔ3 cells;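 also: slope of accumulation versus external concentration fitted as a line through zero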
- condition summary: 1 min incubation, 10-80 µM
Counter-ions that a name gives are not always drawn.
endpoint: Concentration slopes of accumulation, PΔ3_1 min

{"columns": ["molecule", "study target", "meas value"],
 "data": [
  ["CC1CCc2c(N3CCC(O)CC3)c(F)cc3c(=O)c(C(=O)O)cn1c23 (stereo not shown)", "P. aeruginosa PΔ3 cells", 9.00],
  ["CC1CN=C(c2ccc(NC(=O)Nc3ccc(C4=NCCN4)cc3)cc2)N1.Cl (stereo not shown)", "P. aeruginosa PΔ3 cells", 8.86],
  ["CC(Cc1ccc(O)cc1)NCC(O)c1cc(O)cc(O)c1 (stereo not shown)", "P. aeruginosa PΔ3 cells", 2.24],
  ["COc1ccc(CCN(C)CCCC(C#N)(c2ccc(OC)c(OC)c2)C(C)C)cc1OC (stereo not shown) [OU-0000734, Verapamil HCl]", "P. aeruginosa PΔ3 cells", 12.95]
]}

* * *

- Test system: P. aeruginosa PAO1 cells
- test details: LC–MS quantification of intracellular accumulation, PAO1;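 also: slope of accumulation versus external concentration fitted as a line through zero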
- condition summary: 40 min incubation, 10-80 µM
Counter-ions that a name gives are not always drawn.
endpoint: Concentration slopes of accumulation, PAO1_40 min

{"columns": ["compound", "meas value"],
 "data": [
  ["CCn1cc(C(=O)O)c(=O)c2cc(F)c(N3CCNC(C)C3)c(F)c21 (stereo not drawn)", 2.56],
  ["O=C(O)c1cn(C2CC2)c2cc(N3CCNCC3)c(F)cc2c1=O", 2.47],
  ["CC[C@H]1CN2CCc3cc(OC)c(OC)cc3[C@@H]2C[C@@H]1C[C@H]1NCCc2cc(OC)c(OC)cc21.Cl.Cl [OU-0032504, Emetine DIHCl]", 0.65],
  ["CC(C)NCC(O)c1ccc(NS(C)(=O)=O)cc1 (stereo not drawn) [OU-0032507, Sotalol HCl]", 4.58],
  ["COc1ccc2cc1Oc1ccc(cc1)C[C@H]1c3cc(c(OC)cc3CCN1C)Oc1c(OC)c(OC)cc3c1[C@H](C2)N(C)CC3", 5.34],
  ["COc1cccc2c1C(=O)c1c(O)c3c(c(O)c1C2=O)C[C@@](O)(C(=O)CO)C[C@@H]3O[C@H]1C[C@H](N)[C@H](O)[C@H](C)O1", 0.84],
  ["CCn1cc(C(=O)O)c(=O)c2cc(F)c(N3CCNCC3)cc21", 32.76],
  ["C[C@H]1COc2c(N3CCN(C)CC3)c(F)cc3c(=O)c(C(=O)O)cn1c23", 5.59],
  ["CC1CN=C(c2ccc(NC(=O)Nc3ccc(C4=NCCN4)cc3)cc2)N1.Cl (stereo not drawn)", 6.44],
  ["COCCCC/C(=N\\OCCN)c1ccc(C(F)(F)F)cc1", 4.45],
  ["COc1c(N2CCNC(C)C2)c(F)cc2c(=O)c(C(=O)O)cn(C3CC3)c12 (stereo not drawn)", 6.10],
  ["O=C1CC2(CCCC2)CC(=O)N1CCCCN1CCN(c2ncccn2)CC1 [OU-0000735, Buspirone HCl]", 7.21],
  ["CC1CCc2c(N3CCC(O)CC3)c(F)cc3c(=O)c(C(=O)O)cn1c23 (stereo not drawn)", 6.93],
  ["CN1C[C@H](C(=O)N[C@]2(C)O[C@@]3(O)[C@@H]4CCCN4C(=O)[C@H](Cc4ccccc4)N3C2=O)C=C2c3cccc4[nH]cc(c34)C[C@H]21 [OU-0000834, Ergotamine Tartrate]", 12.24],
  ["CC(CCc1ccccc1)NCC(O)c1ccc(O)c(C(N)=O)c1 (stereo not drawn) [OU-0000748, Labetalol HCl]", 14.89],
  ["NC(N)=Nc1nc(CSCCC(N)=NS(N)(=O)=O)cs1", 5.28],
  ["CCOC(=O)NC(=S)Nc1ccccc1NC(=S)NC(=O)OCC [OU-0000837, Thiophanate]", 3.72],
  ["CC(=O)NC[C@H]1CN(c2ccc(N3CCOCC3)c(F)c2)C(=O)O1", 41.30]
]}
